Hello, the source for this data is BigSolDB 2.1, in case you need it.

Conditions: in acetonitrile, 322.85 K
property: solubility (mole fraction)

Exercise: What value of solubility (mole fraction) has been reported for the following compound? O=S(=O)(c1ccccc1)N(F)S(=O)(=O)c1ccccc1
Key: 0.0996

====

Conditions: in n-propanol, 322.85 K
property: solubility (mole fraction)
Please reply with the value in numeric form only.

Exercise: What value of solubility (mole fraction) has been reported for the following molecule? O=S(=O)(c1ccccc1)N(F)S(=O)(=O)c1ccccc1
Key: 0.00633

====

Conditions: in isopropanol, 307.35 K
property: solubility (mole fraction)
Please reply with the value in numeric form only.

Exercise: What value of solubility (mole fraction) has been reported for the following molecule? O=S(=O)(c1ccccc1)N(F)S(=O)(=O)c1ccccc1
Key: 0.00275
